Experiment: Measurement of brain and systemic concentration after oral administration
Assay type: in vivo
Settings: rat, brain; male wistar rats; oral 100 mg/kg; formulated in 10% PEG400/90% MC0.5%; sampled at 1 h; read-out: brain concentration [B]
QUANTITY_KIND: concentration at 1 h (ng/g)
Answers are plain numbers, in ng/g.

The examples below pair each entry with its known result.
1) O=C(c1ccc(C(F)(F)F)cc1-n1nccn1)N1CCOC[C@H]1Cc1cccc(-c2ncon2)c1 ... 1880
2) O=C(c1ccc(Cl)cc1-n1nccn1)N1CCOC[C@H]1Cc1cc(-n2nccn2)ccc1F ... 5830

Attention now turns to another entry.
Form field concentration at 1 h, entry `Cc1cccc(C(=O)N2CCOC[C@H]2Cc2cccc(-n3nccn3)c2)c1-n1nccn1` : 2370

* * *

Would you mind telling me the reported pIC50 of each entry?
Target: CYP3A4 (Homo sapiens (Human), UniProt P08684)
Sequence (P08684 whole entry): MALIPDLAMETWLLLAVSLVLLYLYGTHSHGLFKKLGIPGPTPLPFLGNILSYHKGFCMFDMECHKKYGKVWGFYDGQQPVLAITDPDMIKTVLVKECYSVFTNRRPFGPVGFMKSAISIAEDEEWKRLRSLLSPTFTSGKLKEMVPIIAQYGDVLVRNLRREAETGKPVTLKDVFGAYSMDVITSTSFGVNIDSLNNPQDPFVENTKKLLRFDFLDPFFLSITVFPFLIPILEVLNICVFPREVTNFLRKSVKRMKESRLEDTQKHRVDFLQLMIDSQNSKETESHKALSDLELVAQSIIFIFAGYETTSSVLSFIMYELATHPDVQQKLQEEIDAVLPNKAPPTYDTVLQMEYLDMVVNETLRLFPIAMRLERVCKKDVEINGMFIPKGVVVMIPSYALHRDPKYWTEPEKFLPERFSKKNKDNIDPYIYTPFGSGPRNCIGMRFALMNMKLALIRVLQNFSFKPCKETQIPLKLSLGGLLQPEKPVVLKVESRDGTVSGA
Test: CYP3A4 inhibition assay (human liver microsomes, testosterone 6β-hydroxylation)
Details: read-out: CYP3A4 IC50, 40 μM testosterone
Answers are plain numbers, as −log10 of the molar value.

1. C[C@@H]1CN(C(=O)c2ccc(Cl)cc2-n2nccn2)[C@H](Cc2cc(-n3nccn3)ccc2F)CO1 [Example 187] ... 4.85
2. Cc1cc(C(=O)N2C[C@@H](C)OC[C@H]2Cc2cccc(-n3nccn3)c2)c(-n2nccn2)cc1C [Example 98] ... 5.01
3. Cc1ccc(-n2nccn2)c(C(=O)N2CCOC[C@H]2Cc2cccc(-n3cccn3)c2)c1F [Example 21] ... 4.70
4. O=C(c1cccc(Cl)c1-n1nccn1)N1CCOC[C@H]1Cc1cc(-c2ncon2)ccc1F [Example 180] ... 4.44

Now let's try a different one.
// field: pIC50; key: Cc1cccc(C(=O)N2CCOC[C@H]2Cc2cc(Cl)cc(-n3nccn3)c2)c1-n1nccn1 [Example 106] ; value = 4.85

* * *

Target: human orexin-1 receptor (Homo sapiens (Human))
Assay: In vitro intracellular calcium measurements (FLIPR), antagonistic activity on orexin-1 receptor
Type: cell-based
Details: read-out: IC50 OX1
QUANTITY_KIND: IC50
Answer as a quantity: numeral, then unit.

Please go through the list and note IC50 for each compound.
1. Cc1ccc(C(=O)N2[C@H](Cc3cccc(-n4nccn4)c3)COC[C@@H]2C)c(-n2nccn2)c1
2. Cc1ccc(C(=O)N2CCOC[C@H]2Cc2cc(-n3nccn3)ccc2Cl)c(-n2nccn2)c1

Found:
1: 35 nM; 2: 3 nM

* * *

Molecular target: human orexin-2 receptor (Homo sapiens (Human), UniProt O43614)
Sequence (O43614 whole entry): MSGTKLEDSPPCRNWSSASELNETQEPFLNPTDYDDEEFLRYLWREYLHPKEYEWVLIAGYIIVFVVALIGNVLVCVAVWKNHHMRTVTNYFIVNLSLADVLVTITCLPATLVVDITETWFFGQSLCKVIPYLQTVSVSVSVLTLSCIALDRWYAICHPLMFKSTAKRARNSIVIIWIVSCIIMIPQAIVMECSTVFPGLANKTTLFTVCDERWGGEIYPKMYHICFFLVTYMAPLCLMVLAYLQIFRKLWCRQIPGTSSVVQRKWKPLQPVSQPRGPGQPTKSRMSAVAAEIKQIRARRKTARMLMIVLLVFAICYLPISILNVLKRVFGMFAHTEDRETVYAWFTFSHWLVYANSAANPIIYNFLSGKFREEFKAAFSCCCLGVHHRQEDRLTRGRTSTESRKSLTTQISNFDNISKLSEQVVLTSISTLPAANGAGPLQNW
Test: In vitro intracellular calcium measurements (FLIPR), antagonistic activity on orexin-2 receptor
Format: cell-based
Conditions: CHO cells expressing human orexin-2 receptor; FLIPR; 3 nM orexin-A agonist; 120 min antagonist incubation; geometric mean if determined several times; read-out: IC50 OX2
QUANTITY_KIND: pIC50
Numbers only, as −log10 of the molar value.

The examples below pair each entry with its known result.
1. Cc1ccc(C[C@@H]2COCCN2C(=O)c2ccccc2-n2nccn2)cc1-c1nccs1 ... 6.62
2. Cc1ccc(-n2nccn2)c(C(=O)N2CCOC[C@H]2Cc2cccc(-c3cccnc3)c2)c1 ... 5.85
3. C[C@@H]1CN(C(=O)c2ccccc2-n2nccn2)[C@H](Cc2cccc(-n3nccn3)c2)CO1 ... 6.54
4. Cc1cccc(C(=O)N2[C@H](Cc3cccc(-n4nccn4)c3)COC[C@@H]2C)c1-n1nccn1 ... 5.61
5. COc1ccc(C(=O)N2CCOC[C@H]2Cc2cc(-n3nccn3)ccc2F)c(-n2nccn2)c1 ... 5.92

Can you give me pIC50 for all of these, one by one?
1. Cc1ccc(-n2nccn2)c(C(=O)N2CCOC[C@H]2Cc2ccc(C)c(-n3nccn3)c2)c1
2. O=C(c1cc(F)c(F)cc1-n1nccn1)N1CCOC[C@H]1Cc1cccc(-n2nccn2)c1
3. COc1ccc(C[C@@H]2COCCN2C(=O)c2ccccc2-n2nccn2)cc1-c1cccnc1

Found:
6.58
6.21
5.73

* * *

Biological target: human orexin-1 receptor (Homo sapiens (Human), UniProt O43613)
Sequence (O43613 whole entry): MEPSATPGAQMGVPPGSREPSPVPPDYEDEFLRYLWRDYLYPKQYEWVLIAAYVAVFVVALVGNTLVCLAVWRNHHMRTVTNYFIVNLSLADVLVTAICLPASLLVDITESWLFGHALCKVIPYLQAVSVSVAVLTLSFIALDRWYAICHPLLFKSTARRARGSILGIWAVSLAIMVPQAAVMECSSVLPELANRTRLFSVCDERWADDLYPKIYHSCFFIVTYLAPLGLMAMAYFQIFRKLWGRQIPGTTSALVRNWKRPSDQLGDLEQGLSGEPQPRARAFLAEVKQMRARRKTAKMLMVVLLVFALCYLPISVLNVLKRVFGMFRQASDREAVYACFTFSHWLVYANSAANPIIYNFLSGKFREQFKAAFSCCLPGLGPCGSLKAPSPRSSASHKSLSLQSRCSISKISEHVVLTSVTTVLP
Experiment: In vitro intracellular calcium measurements (FLIPR), antagonistic activity on orexin-1 receptor
Assay type: cell-based
Settings: CHO cells expressing human orexin-1 receptor; FLIPR; 3 nM orexin-A agonist; 120 min antagonist incubation; geometric mean if determined several times; read-out: IC50 OX1
Experimental: In Vitro Assay: Intracellular Calcium Measurements: […] Within the Fluorescent Imaging Plate Reader (FLIPR Tetra, Molecular Devices), antagonists are added to the plate in a volume of 10 μL/well, incubated for 120 min and finally 10 μL/well of agonist is added. Fluorescence is measured for each well at 1 second intervals, and the height of each fluorescence peak is compared to the height of the fluorescence peak induced by 3 nM orexin-A with vehicle in place of antagonist. […]
QUANTITY_KIND: IC50 (nM)
One number for each entry, in nM.

Known results for molecules:
1. Cc1ccc(-n2nccn2)c(C(=O)N2CCOC[C@H]2Cc2cc(-n3nccn3)ccc2C)c1 ... 6
2. Cc1cccc(C(=O)N2[C@H](Cc3cccc(-n4nccn4)c3)COC[C@H]2C)c1-n1nccn1 ... 5
3. O=C(c1ccccc1-n1nccn1)N1CCOC[C@H]1Cc1cccc(-c2ncccn2)c1 ... 22

Next:
Reported IC50 of `Cc1ccc(-n2nccn2)cc1C[C@@H]1COCCN1C(=O)c1cccc(C)c1-n1nccn1` : 9

* * *

Target: human orexin-1 receptor (Homo sapiens (Human), UniProt O43613)
Assay: In vitro intracellular calcium measurements (FLIPR), antagonistic activity on orexin-1 receptor
Type: cell-based
Conditions: CHO cells expressing human orexin-1 receptor; FLIPR; 3 nM orexin-A agonist; 120 min antagonist incubation; geometric mean if determined several times; read-out: IC50 OX1
QUANTITY_KIND: IC50
Please format your answer as a value with the unit trailing.

Parameter requested: IC50. Apply to each item below.
1. Cc1ccc(-n2nccn2)c(C(=O)N2CCO[C@@H](C)[C@H]2Cc2cccc(-n3nccn3)c2)c1 (single isomer, unassigned)
2. C[C@@H]1CN(C(=O)c2ccc(Cl)cc2-n2nccn2)[C@H](Cc2cccc(-n3nccn3)c2)CO1
3. Cc1cc(C(=O)N2C[C@@H](C)OC[C@H]2Cc2cccc(-n3nccn3)c2)c(-n2nccn2)cc1C
4. C[C@@H]1CN(C(=O)c2ccc(Cl)cc2-n2nccn2)[C@H](Cc2cccc(-c3ncccn3)c2)CO1
5. Cc1cccc(C(=O)N2CCOC[C@H]2Cc2cc(-c3ncccn3)ccc2F)c1-n1nccn1
6. Cc1ccc(-n2nccn2)c(C(=O)N2CCOC[C@H]2Cc2cccc(-n3cccn3)c2)c1
7. Cc1ccc(-n2nccn2)c(C(=O)N2CCOC[C@H]2Cc2cccc(-c3ncccn3)c2)c1

Found:
1. 24 nM
2. 2 nM
3. 1 nM
4. 1 nM
5. 39 nM
6. 2 nM
7. 2 nM

* * *

Answer each item with its documented IC50.
Target: CYP3A4 (Homo sapiens (Human), UniProt P08684)
Test: CYP3A4 inhibition assay (human liver microsomes, testosterone 6β-hydroxylation)
Details: read-out: CYP3A4 IC50, 40 μM testosterone
Numbers only, in µM.

1) Cc1ccc(C(=O)N2CCOC[C@H]2Cc2cccc(-c3ncon3)c2)c(-n2nccn2)c1 [Example 81] ... 33

Hi there! I need IC50 for each item below, if you can.
1. Cc1ccc(-n2nccn2)c(C(=O)N2CCOC[C@H]2Cc2cccc(-c3ncon3)c2)c1 [Example 2]
2. Cc1ccc(-n2nccn2)cc1C[C@@H]1COCCN1C(=O)c1ccccc1-n1nccn1 [Example 121]
3. Cc1ccc(-n2nccn2)c(C(=O)N2CCOC[C@H]2Cc2cccc(-c3cccnn3)c2)c1 [Example 47]
4. COc1ccc(C[C@@H]2COCCN2C(=O)c2ccc(F)cc2-n2nccn2)cc1-c1ncon1 [Example 61]
5. Cc1cccc(C(=O)N2CCOC[C@H]2Cc2cccc(-n3nccn3)c2)c1-n1nccn1 [Example 64]
6. Cc1ccc(C(=O)N2C[C@@H](C)OC[C@H]2Cc2cc(-c3ncccn3)ccc2F)c(-n2nccn2)c1 [Example 149]

Found:
43
18
6
42
33
31

Give measured IC50 for every item shown.
1. C[C@@H]1CN(C(=O)c2cc(Cl)ccc2-n2nccn2)[C@H](Cc2cccc(-n3nccn3)c2)CO1 [Example 184]
2. Cc1cccc(C(=O)N2C[C@@H](C)OC[C@H]2Cc2cc(-n3nccn3)ccc2F)c1-n1nccn1 [Example 118]

Found:
[19, 23]

Field: IC50. Fill in for each record below.
1. O=C(c1ccccc1-n1nccn1)N1CCOC[C@H]1Cc1cccc(-n2cccn2)c1 [Example 16]
2. O=C(c1ccc(C(F)(F)F)cc1-n1nccn1)N1CCOC[C@H]1Cc1cccc(-n2nccn2)c1 [Example 76]
3. Cc1ccc(-n2nccn2)c(C(=O)N2CCCC[C@H]2Cc2cccc(-n3nccn3)c2)c1 [Ref. 4]
4. C[C@@H]1CN(C(=O)c2cccc(Cl)c2-n2nccn2)[C@H](Cc2cccc(-n3nccn3)c2)CO1 [Example 172]
5. Cc1cc(C(=O)N2CCOC[C@H]2Cc2cc(-c3ncon3)ccc2F)c(-n2nccn2)cc1C [Example 179]
6. Cc1ccc(C(=O)N2C[C@@H](C)OC[C@H]2Cc2cc(-c3cccnn3)ccc2F)c(-n2nccn2)c1 [Example 165]

Found:
43
7.5
7.7
23
29
20

The measured values listed here are drawn from patent US9150566B2.
